Test system: NCI-H2126
Test: relative viability (nuclei count vs DMSO), 5 days (fraction); higher = more cells survive
Conditions: first compound 0.2 µM
Property Label: relative viability
Give the figure only, with no unit attached.

In the examples that follow, each entry is paired with its recorded relative viability.
# Compound, relative viability
rows = [
    ("Cc1csc(=NC2CCCCC2)n1/N=C/c1ccc(O)c(O)c1O [MIM1] + CC(C)C[C@H](NC(=O)[C@H](Cc1ccccc1)NC(=O)c1cnccn1)B(O)O [Bortezomib] (partner 0.002 µM)", 1.13),
    ("CN1CCN(CCOc2cc(OC3CCOCC3)c3c(Nc4c(Cl)ccc5c4OCO5)ncnc3c2)CC1 [Saracatinib] + CC1(C)CCC(c2ccc(Cl)cc2)=C(CN2CCN(c3ccc(C(=O)NS(=O)(=O)c4ccc(N[C@H](CCN5CCOCC5)CSc5ccccc5)c(S(=O)(=O)C(F)(F)F)c4)cc3)CC2)C1 [Navitoclax] (partner 0.5 µM)", 0.747),
    ("Cc1csc(=NC2CCCCC2)n1/N=C/c1ccc(O)c(O)c1O [MIM1] + NC(=O)Nc1cc(-c2cccc(F)c2)sc1C(=O)N[C@H]1CCCNC1 [AZD7762] (partner 0.2 µM)", 0.934),
]

# evaluate next
q: For the compound Cc1csc(=NC2CCCCC2)n1/N=C/c1ccc(O)c(O)c1O [MIM1] + COc1cccc2cc(-c3nc([C@H]4CC[C@H](C(=O)O)CC4)n4ncnc(N)c34)[nH]c12 [OSI-027] (partner 0.5 µM) , give its reported relative viability.
a: 0.758

---

Each entry below lists one item and its recorded relative viability value.
Test system: UMC-11
Test: relative viability (nuclei count vs DMSO), 5 days (fraction); higher = more cells survive
Conditions: first compound 20 µM
Just the number, please.

Illustrative cases are given below, each with its answer.
# Compound, relative viability
rows = [
    ("Cc1csc(=NC2CCCCC2)n1/N=C/c1ccc(O)c(O)c1O [MIM1] + CS(=O)(=O)CCNCc1ccc(-c2ccc3ncnc(Nc4ccc(OCc5cccc(F)c5)c(Cl)c4)c3c2)o1 [Lapatinib] (partner 2 µM)", 0.181),
    ("Cc1csc(=NC2CCCCC2)n1/N=C/c1ccc(O)c(O)c1O [MIM1] + Cc1nc(Nc2ncc(C(=O)Nc3c(C)cccc3Cl)s2)cc(N2CCN(CCO)CC2)n1 [Dasatinib] (partner 0.075 µM)", 0.235),
    ("Cc1csc(=NC2CCCCC2)n1/N=C/c1ccc(O)c(O)c1O [MIM1] + CC(=O)c1c(C)c2cnc(Nc3ccc(N4CCNCC4)cn3)nc2n(C2CCCC2)c1=O [Palbociclib] (partner 0.5 µM)", 0.338),
    ("Cc1csc(=NC2CCCCC2)n1/N=C/c1ccc(O)c(O)c1O [MIM1] + CC(C)C[C@H](NC(=O)[C@H](Cc1ccccc1)NC(=O)c1cnccn1)B(O)O [Bortezomib] (partner 0.002 µM)", 0.145),
    ("Cc1csc(=NC2CCCCC2)n1/N=C/c1ccc(O)c(O)c1O [MIM1] + CC(=O)Nc1cccc(-n2c(=O)n(C3CC3)c(=O)c3c(Nc4ccc(I)cc4F)n(C)c(=O)c(C)c32)c1 [Trametinib] (partner 0.02 µM)", 0.156),
]

q: Send back UMC-11 relative viability of Cc1csc(=NC2CCCCC2)n1/N=C/c1ccc(O)c(O)c1O [MIM1] + Nc1ncn([C@H]2C[C@H](O)[C@@H](CO)O2)c(=O)n1 [Decitabine] (partner 2 µM) only.
a: 0.42

q: State measured relative viability of the compound Cc1csc(=NC2CCCCC2)n1/N=C/c1ccc(O)c(O)c1O [MIM1] + Nc1nc2[nH]cc(CCc3ccc(C(=O)N[C@@H](CCC(=O)O)C(=O)O)cc3)c2c(=O)[nH]1 [Pemetrexed] (partner 0.2 µM) with UMC-11.
a: 0.369

q: Provide relative viability, recorded with UMC-11, of Cc1csc(=NC2CCCCC2)n1/N=C/c1ccc(O)c(O)c1O [MIM1] + O=C(c1cc(Cc2n[nH]c(=O)c3ccccc23)ccc1F)N1CCN(C(=O)C2CC2)CC1 [Olaparib] (partner 8 µM)
a: 0.183

q: Report relative viability on UMC-11 for this entry: Cc1csc(=NC2CCCCC2)n1/N=C/c1ccc(O)c(O)c1O [MIM1] + Cc1nc(NC(=O)N2CCC[C@H]2C(N)=O)sc1-c1ccnc(C(C)(C)C(F)(F)F)c1 [Alpelisib] (partner 2 µM)
a: 0.224

q: Identify measured relative viability obtained with UMC-11 for Cc1csc(=NC2CCCCC2)n1/N=C/c1ccc(O)c(O)c1O [MIM1] + O=C(CCCCCCC(=O)Nc1ccccc1)NO [Vorinostat] (partner 1 µM) .
a: 0.147

---

System: NCI-H1793
Experiment: relative viability (nuclei count vs DMSO), 5 days (fraction); higher = more cells survive
Conditions: first compound 0.006325 µM
Property Label: relative viability
Just the number, please, no unit attached.

q: Quickly give me recorded relative viability for CCNC(=O)c1noc(-c2cc(C(C)C)c(O)cc2O)c1-c1ccc(CN2CCOCC2)cc1 [Luminespib] + Cc1nc(Nc2ncc(C(=O)Nc3c(C)cccc3Cl)s2)cc(N2CCN(CCO)CC2)n1 [Dasatinib] (partner 0.075 µM)
a: 0.359

q: Let me know recorded relative viability for CCNC(=O)c1noc(-c2cc(C(C)C)c(O)cc2O)c1-c1ccc(CN2CCOCC2)cc1 [Luminespib] + N=C(N)NC(=N)NCCc1ccccc1 [Phenformin] (partner 250 µM) , thanks.
a: 0.373

q: Quote relative viability reported for CCNC(=O)c1noc(-c2cc(C(C)C)c(O)cc2O)c1-c1ccc(CN2CCOCC2)cc1 [Luminespib] + O=C(CCCCCCC(=O)Nc1ccccc1)NO [Vorinostat] (partner 1 µM) please.
a: 0.556

q: Look up relative viability of CCNC(=O)c1noc(-c2cc(C(C)C)c(O)cc2O)c1-c1ccc(CN2CCOCC2)cc1 [Luminespib] + Cc1cc(Nc2cc(N3CCN(C)CC3)nc(Sc3ccc(NC(=O)C4CC4)cc3)n2)n[nH]1 [Tozasertib] (partner 0.1 µM) and report it.
a: 0.346

q: State its relative viability for this molecule: CCNC(=O)c1noc(-c2cc(C(C)C)c(O)cc2O)c1-c1ccc(CN2CCOCC2)cc1 [Luminespib] + CC(=O)Nc1cccc(-n2c(=O)n(C3CC3)c(=O)c3c(Nc4ccc(I)cc4F)n(C)c(=O)c(C)c32)c1 [Trametinib] (partner 0.02 µM)
a: 0.333

---

Quick reference for relative viability among some molecules
Tested on: UMC-11
Experiment: relative viability (nuclei count vs DMSO), 5 days (fraction); higher = more cells survive
Conditions: first compound 0.002 µM
Just the number, please, no unit after it.

Worked set:
# Molecule, Experimental Target, relative viability
rows = [
    ("CCNC(=O)c1noc(-c2cc(C(C)C)c(O)cc2O)c1-c1ccc(CN2CCOCC2)cc1 [Luminespib] + Cc1nc(NC(=O)N2CCC[C@H]2C(N)=O)sc1-c1ccnc(C(C)(C)C(F)(F)F)c1 [Alpelisib] (partner 2 µM)", "UMC-11", 0.943),
    ("CCNC(=O)c1noc(-c2cc(C(C)C)c(O)cc2O)c1-c1ccc(CN2CCOCC2)cc1 [Luminespib] + CS(=O)(=O)N1CCN(Cc2cc3nc(-c4cccc5[nH]ncc45)nc(N4CCOCC4)c3s2)CC1 [Pictilisib] (partner 1 µM)", "UMC-11", 0.43),
]

q: Output measured relative viability for this item: CCNC(=O)c1noc(-c2cc(C(C)C)c(O)cc2O)c1-c1ccc(CN2CCOCC2)cc1 [Luminespib] + Nc1nc2[nH]cc(CCc3ccc(C(=O)N[C@@H](CCC(=O)O)C(=O)O)cc3)c2c(=O)[nH]1 [Pemetrexed] (partner 0.2 µM)
a: 0.737

q: Provide measured relative viability value, entry: CCNC(=O)c1noc(-c2cc(C(C)C)c(O)cc2O)c1-c1ccc(CN2CCOCC2)cc1 [Luminespib] + CC(=O)c1c(C)c2cnc(Nc3ccc(N4CCNCC4)cn3)nc2n(C2CCCC2)c1=O [Palbociclib] (partner 0.5 µM)
a: 0.32

---

System: HCC-78
Assay: relative viability (nuclei count vs DMSO), 5 days (fraction); higher = more cells survive
Conditions: first compound 0.002 µM
// reported relative viability per item
Form field (numeric): enter value without unit.

# Molecule, Value Measured
rows = [
    ("CCNC(=O)c1noc(-c2cc(C(C)C)c(O)cc2O)c1-c1ccc(CN2CCOCC2)cc1 [Luminespib] + CC(=O)c1c(C)c2cnc(Nc3ccc(N4CCNCC4)cn3)nc2n(C2CCCC2)c1=O [Palbociclib] (partner 0.5 µM)", 0.461),
]

Here is another molecule to look at.
q: Given CCNC(=O)c1noc(-c2cc(C(C)C)c(O)cc2O)c1-c1ccc(CN2CCOCC2)cc1 [Luminespib] + NC(=O)Nc1cc(-c2cccc(F)c2)sc1C(=O)N[C@H]1CCCNC1 [AZD7762] (partner 0.2 µM) , respond with its relative viability.
a: 0.562

meta.source: the supplement of paper PMC10307832
